Target: T1, SARS-CoV-2 spike S2 subunit (SARS-CoV-2, UniProt P0DTC2 686-1213)
T1 construct: domain: S2 subunit
Assay: ELISA
ENDPOINT: binding result

{"BINDER": "FJ 10B (antibody, V domains shown) VH: QVQLVQSGAEVKKPGESLRISCKGSGYSFTSYWISWVRQMPGKGLEWMGRIDPSDSYTNYSPSFQGHVTISADKSISTAYLQWSSLKASDTAMYYCARLDPRYGPDYYGMDVWGQGTTVTVSS VL: AIRMTQSPSSLSASVGDRVTITCRASQSISSYLNWYQQKPGKAPKLLIHAASSLQSGVPSRFSGSGSGTDFTLTMSSLQPEDFATYYCQQSYSTPLTFGGGTKVEIR", "RESULT": "no binding"}
{"BINDER": "FM 7B (antibody, V domains shown) VH: EVQLVQSGAEVKKPGASVKVSCKASGYTFTSYAMHWVRQAPGQRLEWMGWINTGNGNTKYSQKFQGRVTITRDTSASTAYMELSSLRSEDTAVYYCARDPTYCSSTSCYPFSWFDPWGQGTLVTVSS VL: NFMLTQPPSVSVAPGQTARITCGGNNIGSKSVHWYQQKPGQAPVLVVYDDSDRPSGIPERFSGSNSGNTATLTISRVEAGDEADYYCQVWDSTGDHSWVFGGGTKLTVL", "RESULT": "no binding"}
{"BINDER": "FG 12C (antibody, V domains shown) VH: EVQLVESGGGLVQPGRSLRLSCAASGFTFDDYAMHWVRQAPGKGLEWVSGISWNSGSIGYADSVKGRFTISRDNAKNSLYLQMNSLRAEDTALYYCAKDMRVHDYGDYYFDYWGQGTLVTVSS VL: SYELTQPPSVSVAPGKTARITCGGNNIGSKSVHWYQQKPGQAPVLVIYYDSDRPSGIPERFSGSNSGNTATLTISRVEAGDEADYYCQVWDSSSDHPVFGGGTKLTVL", "RESULT": "no binding"}
{"BINDER": "FN 8C (antibody, V domains shown) VH: QVQLVESGGGVVQPGRSLRLSCAASGFTFSSYGMHWVRQAPGKGLEWVAVISYDGSNKYYADTVKGRFTISRDNSKNTLYLQMNSLRAEDTAVYYCARERTYYDILTGYRHYYGMDVWGQGTTVTVSS VL: SYELTQPPSVSVAPGQTARITCGGNNIGSKSVHWYQQKPGQAPVLVVYDDSDRPSGIPERFSGSNSGNTATLTISRVEAGDEADYYCQVWDSSSDHWVFGGGTKLTVL", "RESULT": "no binding"}
{"BINDER": "EZ 7A (antibody, V domains shown) VH: EVQLVESGAEVKKPGESLKISCKGSGYSFTSYWIGWVRQMPGKGLEWMGIIYPGDSDTRYSPSFQGQVTISADKSISTAYLQWSSLKASDTAMYYCARGWVYRGFPYYGMDVWGQGTMVTVSS VL: QSALTQPRSVSGSPGQSVTISCTGTSSDVGGYNYVSWYQQHPGKAPKLMIYDVSKRPSGVPDRFSGSKSGNTASLTISGLQAEDEADYYCCSYAGSYTLVFGGGTKLTVL", "RESULT": "no binding"}
